Target: ITK (h) (Homo sapiens, UniProt Q08881)
Construct: purchased Eurofins Scientific Inc. Korea (contract assay service)
Sequence (Q08881 1-620): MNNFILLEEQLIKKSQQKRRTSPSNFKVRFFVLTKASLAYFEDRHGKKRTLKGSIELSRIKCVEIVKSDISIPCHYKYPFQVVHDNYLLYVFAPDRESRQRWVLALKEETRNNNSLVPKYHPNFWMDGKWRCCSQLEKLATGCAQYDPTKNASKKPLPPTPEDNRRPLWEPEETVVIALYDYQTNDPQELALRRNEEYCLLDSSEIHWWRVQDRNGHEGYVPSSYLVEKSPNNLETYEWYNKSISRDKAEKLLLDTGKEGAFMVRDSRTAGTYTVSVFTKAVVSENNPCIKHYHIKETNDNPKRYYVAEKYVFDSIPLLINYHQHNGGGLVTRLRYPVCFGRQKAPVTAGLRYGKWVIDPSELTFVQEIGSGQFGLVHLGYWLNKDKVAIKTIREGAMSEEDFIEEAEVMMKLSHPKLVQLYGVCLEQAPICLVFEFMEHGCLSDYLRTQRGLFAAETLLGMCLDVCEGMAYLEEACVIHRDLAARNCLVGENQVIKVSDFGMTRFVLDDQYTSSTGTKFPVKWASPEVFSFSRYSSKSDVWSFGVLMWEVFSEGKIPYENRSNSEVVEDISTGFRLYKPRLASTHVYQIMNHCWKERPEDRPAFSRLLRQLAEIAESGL
Experiment: Enzymatic assay for ITK (radiometric, Eurofins)
Type: biochemical
Details: in vitro enzymatic assay, duplicate, average; read-out: IC50 against ITK
property.label: IC50 (nM)

>>> test_result("CC(C)(C)c1ccc(C(=O)Nc2cn3cc(-n4ccnc4)ccc3n2)cc1")
1670

###

Target chain: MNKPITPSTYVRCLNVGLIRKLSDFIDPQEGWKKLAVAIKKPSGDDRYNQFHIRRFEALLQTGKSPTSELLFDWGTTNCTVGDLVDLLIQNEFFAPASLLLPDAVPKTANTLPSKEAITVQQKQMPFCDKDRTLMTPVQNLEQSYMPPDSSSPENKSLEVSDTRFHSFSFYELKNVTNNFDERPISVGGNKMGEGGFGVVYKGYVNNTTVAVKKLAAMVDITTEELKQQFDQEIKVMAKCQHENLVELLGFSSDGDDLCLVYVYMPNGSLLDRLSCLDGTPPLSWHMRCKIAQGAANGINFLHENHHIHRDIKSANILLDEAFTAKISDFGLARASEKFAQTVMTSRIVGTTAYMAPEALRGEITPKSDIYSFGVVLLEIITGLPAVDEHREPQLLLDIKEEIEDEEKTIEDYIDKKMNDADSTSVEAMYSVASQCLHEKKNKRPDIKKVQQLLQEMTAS
property.label: IC50 (nM)

>>> test_result("CC(C)(C)c1ccc(C(=O)Nc2cn3cc(-n4ccnc4)ccc3n2)cc1")
187

###

Target: LYN (h) (Homo sapiens, UniProt P07948)
Sequence (P07948 whole entry): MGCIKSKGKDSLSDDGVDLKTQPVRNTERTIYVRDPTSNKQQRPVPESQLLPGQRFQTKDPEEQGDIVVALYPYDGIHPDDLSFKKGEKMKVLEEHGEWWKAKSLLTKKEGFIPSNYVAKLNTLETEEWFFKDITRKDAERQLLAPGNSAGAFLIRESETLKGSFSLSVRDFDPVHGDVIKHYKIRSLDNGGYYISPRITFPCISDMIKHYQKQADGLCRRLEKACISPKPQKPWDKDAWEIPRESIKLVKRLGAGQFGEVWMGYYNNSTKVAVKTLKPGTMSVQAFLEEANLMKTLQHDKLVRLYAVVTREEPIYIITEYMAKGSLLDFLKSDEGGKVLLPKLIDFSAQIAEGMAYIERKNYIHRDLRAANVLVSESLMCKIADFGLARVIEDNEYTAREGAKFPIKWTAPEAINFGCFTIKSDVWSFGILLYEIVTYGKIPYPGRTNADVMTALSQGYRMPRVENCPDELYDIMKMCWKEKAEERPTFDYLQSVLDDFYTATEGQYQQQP
property.label: IC50

>>> test_result("CC(C)(C)c1ccc(C(=O)Nc2cn3cc(-n4ccnc4)ccc3n2)cc1")
"2390 nM"
